Data provenance: patent US20260248927A1

Test system: MV4-11 cells
ASSAY_INFO: Cell viability assay (CellTiter-Glo), MV4-11
Assay type: cell-based
STATED_CONDITIONS: Homo sapiens, MV4-11, 24 hours, 1% FBS, read-out: Average pCC50 by molecule MV4-11 (converted)
Structures can show the parent of a compound that is named as a salt.
Would you kindly list CC50 for each of these compounds?

Can you look up the measured CC50 of Cc1nn(C)c(C)c1-c1c(Cl)ccc2c(CCCOc3cccc4cc(F)ccc34)c(C(=O)O)n(CCN3CCN(C(=O)COc4cccc5c4C(C)N(C4CCC(=O)NC4=O)C5=O)CC3)c12 (stereo not drawn) [Compound 15] for me?
< 100 nM

What value of CC50 has been reported for the following compound? Cc1nc2c(C(=O)NC3CCC(=O)NC3=O)cc(OCCC(=O)N3CCN(CCn4c(C(=O)O)c(CCCOc5cccc6cc(F)ccc56)c5ccc(Cl)c(-c6c(C)nn(C)c6C)c54)CC3)cc2[nH]1 (stereo not drawn) [Compound 3]
< 100 nM

Which CC50 value belongs to CCc1nn2c(c1-c1c(Cl)ccc3c(CCCOc4cccc5cc(F)ccc45)c(C(=O)O)n(CCN4CCN(C(=O)COc5cccc6c5CN(C5CCC(=O)NC5=O)C6=O)CC4)c13)COCC2 (stereo not drawn) [Compound 36] ?
< 100 nM

Query (compound): Cc1nn(C)c(C)c1-c1c(Cl)ccc2c(CCCOc3cccc4cc(F)ccc34)c(C(=O)O)n(CCN3CCC(CN4CCN(c5ccc6c(c5)C(C)N(C5CCC(=O)NC5=O)C6=O)CC4)CC3)c12 (mixture of isomers) [Compound 145] ; field requested: CC50
< 100 nM

Given Cc1nn(C)c(C)c1-c1c(Cl)ccc2c(CCCOc3cccc4cc(F)ccc34)c(C(=O)O)n(CCN3CCN(C(=O)COc4cc(N5CCCCC5)cc5c4CN(C4CCC(=O)NC4=O)C5=O)CC3)c12 (stereo not drawn) [Compound 14] , state its recorded CC50.
< 316 nM

Using the record for CNc1cc(OCC(=O)N2CCN(CCn3c(C(=O)O)c(CCCOc4cccc5cc(F)ccc45)c4ccc(Cl)c(-c5c(C)nn(C)c5C)c43)CC2)c2c(c1)C(=O)N(C1CCC(=O)NC1=O)C2 (stereo not drawn) [Compound 12] , report its CC50.
< 100 nM

Report CC50 for COCCOCCn1nc(C)c(-c2c(Cl)ccc3c(CCCOc4cccc5cc(F)ccc45)c(C(=O)O)n(CCN4CCN(C(=O)COc5cccc6c5CN(C5CCC(=O)NC5=O)C6=O)CC4)c23)c1C (stereo not drawn) [Compound 147, trifluoroacetate] please.
< 100 nM

Looking for the measured CC50 of Cc1nn(C)c(C)c1-c1c(Cl)ccc2c(CCCOc3cccc4cc(F)ccc34)c(C(=O)O)n(CCN3CCN(C(=O)COc4ccc5c(c4)n(C)c(=O)n5C4CCC(=O)NC4=O)CC3)c12 (stereo not drawn) [Compound 22] , can you help?
< 31.6 nM

Please look up its CC50: Cc1nn(C)c(C)c1-c1c(Cl)ccc2c(CCCOc3cccc4cc(F)ccc34)c(C(=O)O)n(CCN3CCN(C(=O)COc4c(N(C)C)ccc5c4CN(C4CCC(=O)NC4=O)C5=O)CC3)c12 (stereo not drawn) [Compound 10]
< 316 nM

Look at this compound and give its reported CC50. Cc1nn(C)c(C)c1-c1c(Cl)ccc2c(CCCOc3cccc4cc(F)ccc34)c(C(=O)O)n(CCN3C(C)CN(C(=O)COc4cccc5c4CN(C4CCC(=O)NC4=O)C5=O)CC3C)c12 (stereo not drawn) [Compound 28]
< 316 nM

CC50 lookup needed for Cc1nn(C)c(C)c1-c1c(Cl)ccc2c(CCCOc3cccc4cc(F)ccc34)c(C(=O)O)n(CCN3CCN(C(=O)COc4ccc5c6c(cccc46)C(=O)N5C4CCC(=O)NC4=O)CC3)c12 (stereo not drawn) [Compound 21] , thanks.
< 316 nM

Reported CC50 for Cc1nn(C)c(C)c1-c1c(Cl)ccc2c(CCCOc3cccc4cc(F)ccc34)c(C(=O)O)n(CCN3CCN(C(=O)COc4cccc5c4n(C)c(=O)n5C4CCC(=O)NC4=O)CC3)c12 (stereo not drawn) [Compound 23] : what is it?
< 31.6 nM

Give its CC50 value. Item: Cc1nc2cc(C(=O)NCC(=O)N3CCN(CCn4c(C(=O)O)c(CCCOc5cccc6cc(F)ccc56)c5ccc(Cl)c(-c6c(C)nn(C)c6C)c54)CC3)ccc2cc1C1CCC(=O)NC1=O (stereo not drawn) [Compound 6]
< 100 nM

I'd like to know its CC50. The compound in question is Cc1nn(C)c(C)c1-c1c(Cl)ccc2c(CCCOc3cccc4cc(F)ccc34)c(C(=O)O)n(CCN3CCN(C(=O)c4cc5cc(C6CCC(=O)NC6=O)ccc5n4C)CC3)c12 (stereo not drawn) [Compound 148]
< 316 nM

Given Cc1nn(C)c(C)c1-c1c(Cl)ccc2c(CCCOc3cccc4cc(F)ccc34)c(C(=O)O)n(CCN3CCN(C(=O)COc4cc(N)cc5c4CN(C4CCC(=O)NC4=O)C5=O)CC3)c12 (stereo not drawn) [Compound 11] , state its recorded CC50.
< 100 nM

Given the compound Cc1nn(C)c(C)c1-c1c(Cl)ccc2c(CCCOc3cccc4cc(F)ccc34)c(C(=O)O)n(CCN3CCN(C(=O)Cn4c(C)nc5c(C(=O)NC6CCC(=O)NC6=O)ccc(F)c54)CC3)c12 (stereo not drawn) [Compound 1] , what is its reported CC50?
< 100 nM

Which measured CC50 value corresponds to Cc1nn(C)c(C)c1-c1c(Cl)ccc2c(CCCOc3cccc4cc(F)ccc34)c(C(=O)O)n(CCN3CCC(CN4CCN(c5cc6c(cc5F)C(=O)N(C5CCC(=O)NC5=O)C6)CC4)CC3)c12 (stereo not drawn) [Compound 144] ?
< 100 nM

Entry Cc1nc2c(NCC(=O)N3CCN(CCn4c(C(=O)O)c(CCCOc5cccc6cc(F)ccc56)c5ccc(Cl)c(-c6c(C)nn(C)c6C)c54)CC3)cccc2cc1N1CCC(=O)NC1=O [Compound 146] : reported CC50 = ?
< 100 nM

Could you share which CC50 value was measured for Cc1nc2c(OCC(=O)N3CCN(CCn4c(C(=O)O)c(CCCOc5cccc6cc(F)ccc56)c5ccc(Cl)c(-c6c(C)nn(C)c6C)c54)CC3)cccc2cc1C1CCC(=O)NC1=O (stereo not drawn) [Compound 4] ?
< 316 nM

Record request: CC50 value, item Cc1nc2c(C(=O)NC3CCC(=O)NC3=O)cc(OCC(=O)N3CCN(CCn4c(C(=O)O)c(CCCOc5cccc6cc(F)ccc56)c5ccc(Cl)c(-c6c(C)nn(C)c6C)c54)CC3)cc2[nH]1 (stereo not drawn) [Compound 2]
< 100 nM

So what's the measured CC50 for this one? COc1ccc2c(c1OCC(=O)N1CCN(CCn3c(C(=O)O)c(CCCOc4cccc5cc(F)ccc45)c4ccc(Cl)c(-c5c(C)nn(C)c5C)c43)CC1)CN(C1CCC(=O)NC1=O)C2=O (stereo not drawn) [Compound 7]
< 100 nM
